Would you mind telling me the reported solubility change mitosis (log2) of each entry?
- Test system: HeLa Kyoto;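 note: synchronized HeLa Kyoto cells (double thymidine block for G1/S, nocodazole release for mitosis), protein amounts in NP-40 versus SDS lysates quantified by mass spectrometry, three biological replicates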
- test.name: solubility change mitosis vs G1/S (difference of NP-40 vs SDS log2 ratios) (log2 ratio difference); higher = more soluble in mitosis

Take a look at these entries with their results.
primary_sequence="MSFNLQSSKKLFIFLGKSLFSLLEAMIFALLPKPRKNVAGEIVLITGAGSGLGRLLALQFARLGSVLVLWDINKEGNEETCKMAREAGATRVHAYTCDCSQKEGVYRVADQVKKEVGDVSILINNAGIVTGKKFLDCPDELMEKSFDVNFKAHLWTYKAFLPAMIANDHGHLVCISSSAGLSGVNGLADYCASKFAAFGFAESVFVETFVQKQKGIKTTIVCPFFIKTGMFEGCTTGCPSLLPILEPKYAVEKIVEAILQEKMYLYMPKLLYFMMFLKSFLPLKTGLLIADYLGILHAMDGFVDQKKKL [SDR16C5]" target="HeLa Kyoto" recorded_measurement=-0.0428
primary_sequence="MEAAETEAEAAALEVLAEVAGILEPVGLQEEAELPAKILVEFVVDSQKKDKLLCSQLQVADFLQNILAQEDTAKGLDPLASEDTSRQKAIAAKEQWKELKATYREHVEAIKIGLTKALTQMEEAQRKRTQLREAFEQLQAKKQMAMEKRRAVQNQWQLQQEKHLQHLAEVSAEVRERKTGTQQELDRVFQKLGNLKQQAEQERDKLQRYQTFLQLLYTLQGKLLFPEAEAEAENLPDDKPQQPTRPQEQSTGDTMGRDPGVSFKAVGLQPAGDVNLP [ZWINT]" target="HeLa Kyoto" recorded_measurement=0.896

From here, focus on the item given below.
Param item = MAGAGRGAAVSRVQAGPGSPRRARGRQQVQPLGKQRPAPWPGLRSKEKKKVNCKPKNQDEQEIPFRLREIMRSRQEMKNPISNKKRKKAAQVTFRKTLEKEAKGEEPDIAVPKFKQRKGESDGAYIHRMQQEAQHVLFLSKNQAIRQPEVQAAPKEKSEQKKAKKAFQKRRLDKVRRKKEEKAADRLEQELLRDTVKFGEVVLQPPELTARPQRSVSKDQPGRRSQMLRMLLSPGGVSQPLTASLARQRIVEEERERAVQAYRALKQRQQQLHGERPHLTSRKKPEPQL [CCDC137] ; retrieve measured solubility change mitosis (log2). 0.83
